The reported measurements were obtained from patent US20120322725A1.

testSystem: glucagon receptor (UniProt P47871)
Sequence (P47871 26-477 limits assumed): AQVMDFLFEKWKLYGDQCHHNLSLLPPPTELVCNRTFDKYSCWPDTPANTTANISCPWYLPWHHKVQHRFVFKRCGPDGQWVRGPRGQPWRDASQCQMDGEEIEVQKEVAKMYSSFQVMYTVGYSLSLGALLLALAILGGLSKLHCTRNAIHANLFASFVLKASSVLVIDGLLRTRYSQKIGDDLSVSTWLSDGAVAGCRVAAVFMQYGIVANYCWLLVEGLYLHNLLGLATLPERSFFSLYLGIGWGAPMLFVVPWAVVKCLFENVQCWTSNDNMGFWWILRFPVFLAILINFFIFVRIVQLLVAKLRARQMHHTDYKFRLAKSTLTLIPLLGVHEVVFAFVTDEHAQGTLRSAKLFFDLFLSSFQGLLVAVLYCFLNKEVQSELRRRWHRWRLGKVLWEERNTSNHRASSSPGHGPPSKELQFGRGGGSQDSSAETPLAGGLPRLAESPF
experimentSummary: cell-based or functional assay
resultType: Glucagon IC50 (µM)
Give the value in µM but do not write µM after it.

Solved cases below.
FTSDYSKYLDERRAQDFVQWLMNTGPSSGAPPPS (lactam between K12 and E16 (glucagon numbering)) [Glucagon (6-CEX) analog D9, K12E16 (Lactam)]
0.828
FTSEYSKYLDERRAQDFVQWLMNTGPSSGAPPPS (lactam between K12 and E16 (glucagon numbering)) [Glucagon (6-CEX) analog E9, K12E16 (lactam)]
2.01
FTSEYSKYLDERRAKDFVQWLMNTGPSSGAPPPS (lactam between E16 and K20 (glucagon numbering)) [Glucagon (6-CEX) analog E9, E16K20 (lactam)]
0.042
TSEYSKYLDERRAQDFVQWLMNTGPSSGAPPPS (PLA at position 6, N-terminal to the letters given; lactam between K12 and E16 (glucagon numbering)) [[PLA6, E9, K12E16 (Lactam)] glucagon (6-CEX) analog]
0.072

We now examine a further binder.
**Q:** // Glucagon IC50 lookup, key: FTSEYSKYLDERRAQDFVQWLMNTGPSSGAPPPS [Glucagon (6-CEX) analog E9, K12, E16]
**A:** 0.762
